- target.desc: ABCB1 (P-glycoprotein) in Colo 320 colonic adenocarcinoma cells (Homo sapiens, UniProt P08183)
- Sequence (P08183 whole entry): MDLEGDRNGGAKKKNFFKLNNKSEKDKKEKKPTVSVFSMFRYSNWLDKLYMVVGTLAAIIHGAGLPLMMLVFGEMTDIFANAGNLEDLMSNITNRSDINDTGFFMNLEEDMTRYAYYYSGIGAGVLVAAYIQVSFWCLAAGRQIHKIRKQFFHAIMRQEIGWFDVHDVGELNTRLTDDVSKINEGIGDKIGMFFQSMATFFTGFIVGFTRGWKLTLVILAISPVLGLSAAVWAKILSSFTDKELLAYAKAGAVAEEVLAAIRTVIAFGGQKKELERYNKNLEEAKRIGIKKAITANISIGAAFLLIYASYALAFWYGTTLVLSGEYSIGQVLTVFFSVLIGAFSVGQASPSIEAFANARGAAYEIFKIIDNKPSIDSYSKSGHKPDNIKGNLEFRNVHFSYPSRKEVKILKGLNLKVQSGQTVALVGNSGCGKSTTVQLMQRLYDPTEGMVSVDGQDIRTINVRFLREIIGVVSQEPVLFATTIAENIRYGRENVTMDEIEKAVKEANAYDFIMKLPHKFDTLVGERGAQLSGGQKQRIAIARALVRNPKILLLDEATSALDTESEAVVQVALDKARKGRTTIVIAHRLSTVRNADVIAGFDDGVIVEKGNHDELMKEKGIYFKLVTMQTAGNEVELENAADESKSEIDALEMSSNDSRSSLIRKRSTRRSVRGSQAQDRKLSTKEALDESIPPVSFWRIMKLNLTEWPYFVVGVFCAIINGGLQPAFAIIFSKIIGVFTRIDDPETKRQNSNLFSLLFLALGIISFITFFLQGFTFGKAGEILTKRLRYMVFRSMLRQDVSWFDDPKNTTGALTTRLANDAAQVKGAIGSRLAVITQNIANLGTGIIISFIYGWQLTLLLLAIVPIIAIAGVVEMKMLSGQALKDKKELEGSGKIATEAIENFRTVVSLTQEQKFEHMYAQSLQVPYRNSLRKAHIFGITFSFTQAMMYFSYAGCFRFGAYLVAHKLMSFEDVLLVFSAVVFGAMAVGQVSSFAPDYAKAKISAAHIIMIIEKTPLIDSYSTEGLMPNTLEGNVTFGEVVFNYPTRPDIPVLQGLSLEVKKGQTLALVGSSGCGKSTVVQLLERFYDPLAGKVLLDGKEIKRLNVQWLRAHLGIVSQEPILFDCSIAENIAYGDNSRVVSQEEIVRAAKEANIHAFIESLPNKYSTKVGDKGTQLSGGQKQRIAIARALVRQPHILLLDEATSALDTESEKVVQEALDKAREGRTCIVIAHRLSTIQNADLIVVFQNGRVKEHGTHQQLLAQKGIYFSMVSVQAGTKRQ
- test.protocol: ABCB1 inhibition, rhodamine 123 accumulation by flow cytometry;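 also: test compounds at 0.2 or 2 µM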
- test.parameters: 2 µM; rhodamine 123; FAR above 2 considered effective
Label Criterion met for high-side FAR (fluorescence activity ratio) (at or above 40) and Criterion not met for low-side FAR (fluorescence activity ratio) (below it).

Worked cases, answers included:
1) CC(=O)C[Se]C(=O)c1cc(F)c(F)cc1F	Criterion not met
2) CC(=O)C[Se]C(=O)c1ccccc1F [K2, Se-(2-Oxopropyl) 2-Fluorobenzoselenoate]	Criterion not met
3) CC(=O)C[Se]C(=O)c1ccccc1C(F)(F)F	Criterion not met

Next compound, please.
**Q:** Quick check: does "CC(=O)C[Se]C(=O)c1cccs1" have FAR (fluorescence activity ratio) greater than or equal to 40?
**A:** Criterion met

----------
Give SI MRC-5/Colo 320 for every item shown.
- Test system: Colo 320/MDR-LRP human colonic adenocarcinoma cell line
- test.protocol: Cytotoxicity (MTT) on resistant Colo 320 cells
- Type: cell-based
- test.parameters: ratio IC50 non-tumour cells / IC50 cancer cells
Numbers only.

1) CC(=O)C[Se]C(=O)c1cc(F)c(F)cc1F [K8]	1.05
2) CC(=O)C[Se]C(=O)c1cccc(C(F)(F)F)c1 [K5]	1.43
3) CC(=O)C[Se]C(=O)c1ccccc1F [K2, Se-(2-Oxopropyl) 2-Fluorobenzoselenoate]	1.06
4) CC(=O)C[Se]C(=O)c1cccs1 [K1]	1.52

Okay, here is my list. What is SI MRC-5/Colo 320 for each of these?
1. CC(=O)C[Se]C(=O)c1ccc(F)c(Cl)c1 [K6]
2. CC(=O)C[Se]C(=O)c1ccc(Br)cc1 [K3, Se-(2-Oxopropyl) 4-Bromobenzoselenoate]
3. CC(=O)C[Se]C(=O)c1ccc(C(C)(C)C)cc1 [K7]
4. CC(=O)C[Se]C(=O)c1ccccc1C(F)(F)F [K4]

**A:**
1: 1.72; 2: 1.33; 3: 1.45; 4: 2.45

**Q:** Provide value of SI MRC-5/Colo 320 for this record tested with Colo 320/MDR-LRP human colonic adenocarcinoma cell line: COc1cccc2c1C(=O)c1c(O)c3c(c(O)c1C2=O)C[C@@](O)(C(=O)CO)C[C@@H]3O[C@H]1C[C@H](N)[C@H](O)[C@H](C)O1 [Dox., doxorubicin, reference compound]
**A:** 0.36

----------
- Tested on: B16 (skin melanoma)
- test.protocol: Cytotoxicity on B16 cells
- Type: cell-based, murine
- test.parameters: ratio IC50 non-tumour cells / IC50 cancer cells
Please provide measured SI MRC-5/B16 for the entries that follow.
One number for each entry.

Some solved cases for reference:
1. CC(=O)C[Se]C(=O)c1cccc(C(F)(F)F)c1 [K5]	2.8
2. CC(=O)C[Se]C(=O)c1ccc(C(C)(C)C)cc1 [K7]	2.7
3. CC(=O)C[Se]C(=O)c1cccs1 [K1]	2.6
4. CC(=O)C[Se]C(=O)c1ccccc1C(F)(F)F [K4]	1.4

List reported SI MRC-5/B16 for each of these compounds:
1. CC(=O)C[Se]C(=O)c1ccccc1F [K2, Se-(2-Oxopropyl) 2-Fluorobenzoselenoate]
2. CC(=O)C[Se]C(=O)c1ccc(F)c(Cl)c1 [K6]
3. CC(=O)C[Se]C(=O)c1ccc(Br)cc1 [K3, Se-(2-Oxopropyl) 4-Bromobenzoselenoate]
4. CC(=O)C[Se]C(=O)c1cc(F)c(F)cc1F [K8]

**A:**
1: 2.1; 2: 2.8; 3: 1.3; 4: 1.8
